Form field: Activity in inhibiting proliferation of BaF3-IL-23R cells (IC50, nM) (one value per entry).
Molecular target: T1, human IL-23 (Sino Biological, CT048-H08H) (human, UniProt Q9NPF7 20-189; P29460 23-328)
T1 sequence (looked up) 1: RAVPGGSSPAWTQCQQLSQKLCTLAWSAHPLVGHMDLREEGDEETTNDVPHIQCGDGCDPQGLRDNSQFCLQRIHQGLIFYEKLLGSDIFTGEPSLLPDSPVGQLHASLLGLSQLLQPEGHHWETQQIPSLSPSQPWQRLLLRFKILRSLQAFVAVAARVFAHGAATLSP
T1 sequence (looked up) 2: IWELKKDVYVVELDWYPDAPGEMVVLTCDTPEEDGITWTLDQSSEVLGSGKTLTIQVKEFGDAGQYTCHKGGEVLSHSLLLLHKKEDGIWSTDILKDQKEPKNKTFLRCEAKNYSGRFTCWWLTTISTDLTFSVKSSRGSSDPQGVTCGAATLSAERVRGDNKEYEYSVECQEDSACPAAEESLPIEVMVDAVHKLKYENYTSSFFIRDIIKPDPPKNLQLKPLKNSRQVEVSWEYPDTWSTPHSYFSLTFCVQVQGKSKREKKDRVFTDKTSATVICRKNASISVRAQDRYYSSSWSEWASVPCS
Experiment: cell-based or functional assay
Readout: Activity in inhibiting proliferation of BaF3-IL-23R cells (IC50, nM)

1. Hu38-9 (antibody, human IgG1, kappa, L234A L235A, V domains shown, humanized mAb38, IgG1/kappa) VH: EFQLVQSGAEVKKPGASVKVSCKASGYSFTDHNMNWVRQAPGQRLEWMGVINPNYGTTTYNQKFKGRVTITVDQSASTAYMELSSLRSEDTAVYYCARRGFAYWGQGTLVTVSS VL: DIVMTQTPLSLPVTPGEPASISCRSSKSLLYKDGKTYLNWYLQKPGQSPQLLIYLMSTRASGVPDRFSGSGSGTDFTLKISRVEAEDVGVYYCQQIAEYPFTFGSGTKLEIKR ... 0.198
2. Hu38-5 (antibody, human IgG1, kappa, L234A L235A, V domains shown, humanized mAb38, IgG1/kappa) VH: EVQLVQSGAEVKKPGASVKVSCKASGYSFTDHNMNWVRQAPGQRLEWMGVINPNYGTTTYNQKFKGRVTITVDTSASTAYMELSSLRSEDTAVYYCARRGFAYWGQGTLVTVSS VL: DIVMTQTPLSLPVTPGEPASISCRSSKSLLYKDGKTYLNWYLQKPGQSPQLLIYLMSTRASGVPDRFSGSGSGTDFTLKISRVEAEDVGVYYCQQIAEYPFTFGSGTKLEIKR ... 0.148
